Assignment: determine reported EC50 hC3 cleavage for the given binders.
Target: plasma purified human complement protein C3 (human) (UniProt P01024)
Sequence (P01024 23-667, chain 1 of 2): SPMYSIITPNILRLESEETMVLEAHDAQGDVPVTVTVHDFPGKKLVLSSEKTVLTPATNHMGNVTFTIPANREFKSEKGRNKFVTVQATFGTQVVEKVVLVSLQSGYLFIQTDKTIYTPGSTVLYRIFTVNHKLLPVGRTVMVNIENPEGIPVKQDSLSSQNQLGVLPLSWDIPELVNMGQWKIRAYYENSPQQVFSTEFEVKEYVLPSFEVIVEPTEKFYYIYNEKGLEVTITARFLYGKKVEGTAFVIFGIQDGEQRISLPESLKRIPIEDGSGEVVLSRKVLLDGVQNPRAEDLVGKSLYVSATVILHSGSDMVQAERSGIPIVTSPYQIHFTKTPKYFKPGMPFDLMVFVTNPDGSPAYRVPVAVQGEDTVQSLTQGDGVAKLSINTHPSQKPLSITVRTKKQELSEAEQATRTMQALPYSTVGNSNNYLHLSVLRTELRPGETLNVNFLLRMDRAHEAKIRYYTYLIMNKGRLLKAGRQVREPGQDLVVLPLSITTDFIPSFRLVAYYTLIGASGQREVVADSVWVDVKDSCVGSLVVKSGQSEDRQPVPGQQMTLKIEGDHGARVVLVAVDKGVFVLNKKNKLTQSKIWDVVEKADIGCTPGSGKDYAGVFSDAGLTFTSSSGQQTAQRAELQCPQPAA
Sequence (P01024 672-1663, chain 2 of 2): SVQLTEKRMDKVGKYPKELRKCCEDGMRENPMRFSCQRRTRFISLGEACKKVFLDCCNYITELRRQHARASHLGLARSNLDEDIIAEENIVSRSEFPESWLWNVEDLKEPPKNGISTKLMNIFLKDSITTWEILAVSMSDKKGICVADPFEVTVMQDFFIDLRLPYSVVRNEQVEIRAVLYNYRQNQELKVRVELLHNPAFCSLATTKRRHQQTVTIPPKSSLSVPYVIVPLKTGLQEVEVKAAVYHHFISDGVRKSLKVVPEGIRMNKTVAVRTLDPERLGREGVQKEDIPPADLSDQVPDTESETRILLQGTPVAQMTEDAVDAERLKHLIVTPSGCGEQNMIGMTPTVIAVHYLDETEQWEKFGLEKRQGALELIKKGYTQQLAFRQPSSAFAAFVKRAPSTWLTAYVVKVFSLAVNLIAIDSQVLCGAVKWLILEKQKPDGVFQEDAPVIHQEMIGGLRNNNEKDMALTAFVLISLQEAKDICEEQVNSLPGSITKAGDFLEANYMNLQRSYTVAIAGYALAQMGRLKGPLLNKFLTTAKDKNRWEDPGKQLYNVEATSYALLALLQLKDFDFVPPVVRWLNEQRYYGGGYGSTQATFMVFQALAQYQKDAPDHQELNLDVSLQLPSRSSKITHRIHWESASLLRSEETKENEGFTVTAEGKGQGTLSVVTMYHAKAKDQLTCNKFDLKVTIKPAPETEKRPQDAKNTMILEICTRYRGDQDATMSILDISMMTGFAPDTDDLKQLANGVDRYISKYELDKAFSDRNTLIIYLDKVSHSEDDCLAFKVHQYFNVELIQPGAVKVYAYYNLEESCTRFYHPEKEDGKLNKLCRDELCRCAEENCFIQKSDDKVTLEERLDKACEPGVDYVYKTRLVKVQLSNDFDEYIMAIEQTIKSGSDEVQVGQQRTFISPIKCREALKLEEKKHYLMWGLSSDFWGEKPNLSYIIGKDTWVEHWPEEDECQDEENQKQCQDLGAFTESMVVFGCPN
Assay: cell-based or functional assay
Express your answer in nM, writing the number without its unit.

Entry MTSP-1 protease domain I41S/ins97aV/C122S/Q192D (enzyme) VVGGTDADEGEWPWQVSLHALGQGHSCGASLISPNWLVSAAHCYIDDRGFRYSDPTQWTAFLGLHDQSQRSAPGVQERRLKRIISHPFFNDFVTFDYDIALLELEKPAEYSSMVRPISLPDASHVFPAGKAIWVTGWGHTQYGGTGALILQKGEIRVINQTTCENLLPQQITPRMMCVGFLSGGVDSCDGDSGGPLSSVEADGRIFQAGVVSWGDGCAQRNKPGVYTRLPLFRDWIKENTGV ; EC50 hC3 cleavage = 336

For reference, reported EC50 hC3 cleavage for MTSP-1 protease domain Q38F/I41V/D96Q/ins97aT/C122S/G151D (enzyme) VVGGTDADEGEWPWQVSLHALGFGHVCGASLISPNWLVSAAHCYIDDRGFRYSDPTQWTAFLGLHDQSQRSAPGVQERRLKRIISHPFFNQFTTFDYDIALLELEKPAEYSSMVRPISLPDASHVFPAGKAIWVTGWGHTQYGGTDALILQKGEIRVINQTTCENLLPQQITPRMMCVGFLSGGVDSCQGDSGGPLSSVEADGRIFQAGVVSWGDGCAQRNKPGVYTRLPLFRDWIKENTGV stands at 9.89

EC50 hC3 cleavage in this record for MTSP-1 protease domain I41D/F99L/C122S/Q175S/Q192T (enzyme) VVGGTDADEGEWPWQVSLHALGQGHDCGASLISPNWLVSAAHCYIDDRGFRYSDPTQWTAFLGLHDQSQRSAPGVQERRLKRIISHPFFNDFTLDYDIALLELEKPAEYSSMVRPISLPDASHVFPAGKAIWVTGWGHTQYGGTGALILQKGEIRVINQTTCENLLPQSITPRMMCVGFLSGGVDSCTGDSGGPLSSVEADGRIFQAGVVSWGDGCAQRNKPGVYTRLPLFRDWIKENTGV : 27.4

// MTSP-1 protease domain Q38H/I41A/D96R/ins97aQ/C122S (enzyme) VVGGTDADEGEWPWQVSLHALGHGHACGASLISPNWLVSAAHCYIDDRGFRYSDPTQWTAFLGLHDQSQRSAPGVQERRLKRIISHPFFNRFQTFDYDIALLELEKPAEYSSMVRPISLPDASHVFPAGKAIWVTGWGHTQYGGTGALILQKGEIRVINQTTCENLLPQQITPRMMCVGFLSGGVDSCQGDSGGPLSSVEADGRIFQAGVVSWGDGCAQRNKPGVYTRLPLFRDWIKENTGV : EC50 hC3 cleavage value = 7.6

EC50 hC3 cleavage reading for MTSP-1 protease domain I41E/C122S/G151N/Q175L/Q192A (enzyme) VVGGTDADEGEWPWQVSLHALGQGHECGASLISPNWLVSAAHCYIDDRGFRYSDPTQWTAFLGLHDQSQRSAPGVQERRLKRIISHPFFNDFTFDYDIALLELEKPAEYSSMVRPISLPDASHVFPAGKAIWVTGWGHTQYGGTNALILQKGEIRVINQTTCENLLPQLITPRMMCVGFLSGGVDSCAGDSGGPLSSVEADGRIFQAGVVSWGDGCAQRNKPGVYTRLPLFRDWIKENTGV : 45

Lookup result for MTSP-1 protease domain I41S/F99L/C122S/G151H/Q175L/Q192V (enzyme) VVGGTDADEGEWPWQVSLHALGQGHSCGASLISPNWLVSAAHCYIDDRGFRYSDPTQWTAFLGLHDQSQRSAPGVQERRLKRIISHPFFNDFTLDYDIALLELEKPAEYSSMVRPISLPDASHVFPAGKAIWVTGWGHTQYGGTHALILQKGEIRVINQTTCENLLPQLITPRMMCVGFLSGGVDSCVGDSGGPLSSVEADGRIFQAGVVSWGDGCAQRNKPGVYTRLPLFRDWIKENTGV ; measured EC50 hC3 cleavage: 20.9

Note to self: EC50 hC3 cleavage recorded for MTSP-1 protease domain Q38H/I41S/D60bT/F60eS/Y60gW/ins97aV/F97D/T98P/F99L/C122S/Q175L/Q192E (enzyme) VVGGTDADEGEWPWQVSLHALGHGHSCGASLISPNWLVSAAHCYIDTRGSRWSDPTQWTAFLGLHDQSQRSAPGVQERRLKRIISHPFFNDDVPLDYDIALLELEKPAEYSSMVRPISLPDASHVFPAGKAIWVTGWGHTQYGGTGALILQKGEIRVINQTTCENLLPQLITPRMMCVGFLSGGVDSCEGDSGGPLSSVEADGRIFQAGVVSWGDGCAQRNKPGVYTRLPLFRDWIKENTGV was 4.86

// MTSP-1 protease domain Q38H/I41T/D96K/ins97aL/C122S/G151N/Q192A (enzyme) VVGGTDADEGEWPWQVSLHALGHGHTCGASLISPNWLVSAAHCYIDDRGFRYSDPTQWTAFLGLHDQSQRSAPGVQERRLKRIISHPFFNKFLTFDYDIALLELEKPAEYSSMVRPISLPDASHVFPAGKAIWVTGWGHTQYGGTNALILQKGEIRVINQTTCENLLPQQITPRMMCVGFLSGGVDSCAGDSGGPLSSVEADGRIFQAGVVSWGDGCAQRNKPGVYTRLPLFRDWIKENTGV : EC50 hC3 cleavage value = 44.7

// field: EC50 hC3 cleavage; key: MTSP-1 protease domain Q38H/I41A/D60bV/F60eR/Y60gW/D96F/F97Y/ins97aE/T98G/F99M/C122S/G151N/Q175L/Q192R (enzyme) VVGGTDADEGEWPWQVSLHALGHGHACGASLISPNWLVSAAHCYIDVRGRRWSDPTQWTAFLGLHDQSQRSAPGVQERRLKRIISHPFFNFYEGMDYDIALLELEKPAEYSSMVRPISLPDASHVFPAGKAIWVTGWGHTQYGGTNALILQKGEIRVINQTTCENLLPQLITPRMMCVGFLSGGVDSCRGDSGGPLSSVEADGRIFQAGVVSWGDGCAQRNKPGVYTRLPLFRDWIKENTGV ; value = 7.16

The value of EC50 hC3 cleavage measured for the binder MTSP-1 protease domain Q38H/I41S/Y60gW/C122S/G151H/Q192A (enzyme) VVGGTDADEGEWPWQVSLHALGHGHSCGASLISPNWLVSAAHCYIDDRGFRWSDPTQWTAFLGLHDQSQRSAPGVQERRLKRIISHPFFNDFTFDYDIALLELEKPAEYSSMVRPISLPDASHVFPAGKAIWVTGWGHTQYGGTHALILQKGEIRVINQTTCENLLPQQITPRMMCVGFLSGGVDSCAGDSGGPLSSVEADGRIFQAGVVSWGDGCAQRNKPGVYTRLPLFRDWIKENTGV turned out to be 8.96
